# testTarget: dCTP pyrophosphatase 1 (Homo sapiens, UniProt Q9H773)
# runDescription: Inhibition of human recombinant full length dCTPase expressed in Escherichia coli BL21(DE3)pLysS using dCTP as substrate after 1 hr by HTS-adapted Malachite Green assay
endpointLabel: IC50
# do not omit the unit; it follows the number

INPUT: What does the data say about its IC50? Entry: Cc1nc2c([N+](=O)[O-])c(Cl)c(Cl)cc2n1CCc1ccc(B(O)O)cc1
OUTPUT: 0.205 µM

INPUT: What does the data say about its IC50? Entry: Cc1nc2c([N+](=O)[O-])c(Cl)c(Cl)cc2n1Cc1ccc(B2OC(=O)CN(C)CC(=O)O2)cc1
OUTPUT: 0.047 µM

INPUT: What does the data say about its IC50? Entry: Cc1nc2cc(Cl)c(Cl)cc2n1Cc1ccc(B(O)O)cc1
OUTPUT: 0.248 µM

INPUT: What does the data say about its IC50? Entry: Cc1cc2c(nc(C)n2C(C)c2ccccc2)c([N+](=O)[O-])c1C (stereo not given)
OUTPUT: 0.25 µM

INPUT: What does the data say about its IC50? Entry: Cc1nc(Cn2c(C)nc3c([N+](=O)[O-])c(Cl)c(Cl)cc32)cs1
OUTPUT: 0.24 µM

---

# testTarget: dCTP pyrophosphatase 1 (Homo sapiens)
# Sequence (Q9H773 whole entry): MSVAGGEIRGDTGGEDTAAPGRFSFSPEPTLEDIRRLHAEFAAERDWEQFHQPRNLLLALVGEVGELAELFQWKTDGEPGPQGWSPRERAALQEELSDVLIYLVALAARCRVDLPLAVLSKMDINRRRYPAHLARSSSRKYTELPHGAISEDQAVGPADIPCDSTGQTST
# runDescription: Inhibition of human recombinant full length dCTPase expressed in Escherichia coli BL21(DE3)pLysS using dCTP as substrate after 1 hr by HTS-adapted Malachite Green assay
Exercise: for every item that follows, state its recorded pIC50.
A value of pIC50 is the negative decimal logarithm of a concentration given in moles per litre.

INPUT: What does the data say about its pIC50? Entry: Cc1nc2c([N+](=O)[O-])c(Cl)c(Cl)cc2n1Cc1ccc(C#N)cc1
OUTPUT: 6.78

INPUT: What does the data say about its pIC50? Entry: COC(=O)c1ccc(Cn2c(C)nc3c([N+](=O)[O-])c(Cl)c(Cl)cc32)cc1
OUTPUT: 7.02

INPUT: What does the data say about its pIC50? Entry: Cc1nc2c([N+](=O)[O-])c(Cl)c(Cl)cc2n1Cc1ccc(Cl)nc1
OUTPUT: 6.73

INPUT: What does the data say about its pIC50? Entry: Cc1nc2c([N+](=O)[O-])c(Cl)c(Cl)cc2n1-c1ccccc1
OUTPUT: 7.07

---

# testTarget: dCTP pyrophosphatase 1 (Homo sapiens, UniProt Q9H773)
# runDescription: Inhibition of human recombinant full length dCTPase expressed in Escherichia coli BL21(DE3)pLysS using dCTP as substrate after 1 hr by HTS-adapted Malachite Green assay
endpointLabel: IC50

INPUT: What does the data say about its IC50? Entry: COc1ccc(Cn2cnc3ccccc32)cc1
OUTPUT: > 100 µM

INPUT: What does the data say about its IC50? Entry: COc1ccc(Cn2c(C)nc3ccccc32)cc1
OUTPUT: > 100 µM

INPUT: What does the data say about its IC50? Entry: COc1ccc(Cn2cnc3cc(C)c(C)cc32)cc1
OUTPUT: > 100 µM
